- system-tested: acetylcholine receptor
- assay-name: SPR, AchR immobilised, peptide 10 uM
quantity: Binding affinity (RU)

RKIDAK [6mer-1-633] | 16
KKPWKR [6mer-1-1087] | 27
RRPDIK [6mer-1-1078] | 25
RRFEFK [6mer-1-637] | 33
KRIMKK [6mer-1-613] | 14
RRTMGR [6mer-1-1122] | 33
KKPSVK [6mer-1-1075] | 38
RKNADR [6mer-1-605] | 20
KRYHIR [6mer-1-1068] | 31
KRICWK [6mer-1-651] | 27
KRCCVR [6mer-1-1109] | 41
RRMAGK [6mer-1-621] | 30
KKNTIK [6mer-1-616] | 31
RKNCNK [6mer-1-1097] | 39
KRPSNK [6mer-1-1081] | 23
KREDKK [6mer-1-625] | 33
RRNCWR [6mer-1-640] | 25
